- Test system: Human immunodeficiency virus 1
- procedureText: Antiviral activity against Human immunodeficiency virus 1 Ba-L by in human HOS cells assessed as inhibition of viarl entry by luciferase reporter gene assay
- Assay type: functional, organism-based
pIC50: −log10 of the molar value.
parameterMeasured: pIC50

Sample answers from the record:
In [3]: df
Out[3]:
                                entrysmiles  parametermeasured  obsvalue
0  Cc1nc(Oc2ccc(NS(C)(=O)=O)cc2)ncc1CN1CCC(N(C(=O)Nc2ccc(C(N)=O)nc2)c2cccc(F)c2)CC1              pIC50      8.62
1  CS(=O)(=O)Nc1ccc(Oc2ccc(CN3CCC(N(C(=O)Nc4ccc(C(N)=O)nc4)c4ccccc4)CC3)c(C3CC3)n2)cc1              pIC50      9.00
2  Cc1nc(Oc2ccc(NS(C)(=O)=O)cc2F)ccc1CN1CCC(N(C(=O)Nc2ccc(C(N)=O)nc2)c2cccc(F)c2)CC1              pIC50      8.92
3  Cc1nc(Oc2ccc(NS(C)(=O)=O)cc2)ccc1CN1CCC(N(C(=O)Nc2ccc(C(N)=O)nc2)c2cccc(F)c2)CC1              pIC50      9.00
4  CS(=O)(=O)Nc1ccc(Oc2ccc(CN3CCC(N(C(=O)Nc4ccc(C#N)nc4)c4ccccc4)CC3)cn2)cc1              pIC50      7.36

A. Cc1nc(Oc2ccc(NS(C)(=O)=O)cc2)ccc1CN1CCC(N(C(=O)Nc2ccc(C(N)=O)nc2C)c2cccc(F)c2)CC1
B. Cc1nc(Oc2ccc(NS(C)(=O)=O)cc2Cl)ccc1CN1CCC(N(C(=O)Nc2ccc(C(N)=O)nc2)c2cccc(F)c2)CC1
// select label with min value of measured pIC50 from [ A , B ] # reply format: chosen label
A

###

- System: Human immunodeficiency virus 1
- procedureText: Antiviral activity against Human immunodeficiency virus 1 Ba-L by in human HOS cells assessed as inhibition of viarl entry by luciferase reporter gene assay
- Type: functional, organism-based
pIC50: −log10 of the molar value.
parameterMeasured: pIC50

A selection of reference data follows.
                                entrysmiles                          system  obsvalue
0  Cc1cc(NS(C)(=O)=O)ccc1Oc1ccc(CN2CCC(N(C(=O)Nc3ccc(C(N)=O)nc3)c3cccc(F)c3)CC2)c(C)n1  Human immunodeficiency virus 1      9.00
1  Cc1cc(NC(=O)N(c2cccc(F)c2)C2CCN(Cc3ccc(Oc4ccc(NS(C)(=O)=O)cc4)nc3C)CC2)cnc1C(N)=O  Human immunodeficiency virus 1      8.72

1. CS(=O)(=O)Nc1ccc(Oc2ccc(CN3CCC(N(C(=O)Nc4ccc(C(N)=O)nc4)c4ccccc4)CC3)cn2)cc1
2. Cc1nc(Oc2ccc(NS(C)(=O)=O)cc2)ccc1CN1CCC(N(C(=O)Nc2cnc(C(N)=O)c(F)c2)c2cccc(F)c2)CC1
Decide: 1 or 2 , by lowest recorded pIC50. Kindly give the label for the entry you pick.
1

###

- procedureText: Metabolic stability of the compound in Sprague-Dawley rat plasma assessed as compound remaining at 1 mg/kg after 60 mins
- Format: ADME, organism-based
- Design: dose 1 mg/kg
- conditionsUsed: Sprague-Dawley, plasma, read-out: Stability
parameterMeasured: remaining at 1 h (%)

In [3]: df
Out[3]:
                                entrysmiles  unittext  obsvalue
0  Cc1nc(Oc2ccc(NS(C)(=O)=O)cc2)ccc1CN1CCC(N(C(=O)Nc2ccc(C(N)=O)nc2)c2cccc(F)c2)CC1         %         3

A. Cc1nc(Oc2ccc(NS(C)(=O)=O)cc2)ccc1CN1CCC(N(C(=O)Nc2cnc(C(N)=O)c(F)c2)c2cccc(F)c2)CC1
B. Cc1nc(Oc2ccc(NS(C)(=O)=O)cc2)ccc1CN1CCC(N(C(=O)Nc2ccc(C(N)=O)nc2C)c2cccc(F)c2)CC1
# returns the entry with the larger remaining at 1 h; inputs A and B Which one? Tell me its label.
B

###

- procedureText: Half life in Sprague-Dawley rat plasma at 1 mg/kg
- Assay type: ADME, organism-based
- Parameters: dose 1 mg/kg
parameterMeasured: half-life (min)

>>> df
                                entrysmiles  unittext  obsvalue
0  Cc1nc(Oc2ccc(NS(C)(=O)=O)cc2)ccc1CN1CCC(N(C(=O)Nc2ccc(C(N)=O)nc2C)c2cccc(F)c2)CC1       min       168

1. Cc1cc(NC(=O)N(c2cccc(F)c2)C2CCN(Cc3ccc(Oc4ccc(NS(C)(=O)=O)cc4)nc3C)CC2)cnc1C(N)=O
2. Cc1nc(Oc2ccc(NS(C)(=O)=O)cc2)ccc1CN1CCC(N(C(=O)Nc2cc(F)c(C(N)=O)cc2F)c2cccc(F)c2)CC1
Of 1 and 2 , whose reported half-life is the larger number? # answer = label of selected item
2

###

- procedureText: Metabolic stability of the compound in Sprague-Dawley rat plasma assessed as compound remaining at 1 mg/kg after 30 mins
- Type: ADME, organism-based
- Parameters: dose 1 mg/kg
- conditionsUsed: read-out: Stability
parameterMeasured: remaining at 0.5 h (%)

                                entrysmiles   parametermeasured  obsvalue
0  Cc1nc(Oc2ccc(NS(C)(=O)=O)cc2)ccc1CN1CCC(N(C(=O)Nc2ccc(C(N)=O)nc2)c2cccc(F)c2)CC1  remaining at 0.5 h        25

1. Cc1nc(Oc2ccc(NS(C)(=O)=O)cc2)ccc1CN1CCC(N(C(=O)Nc2ccc(C(N)=O)nc2C)c2cccc(F)c2)CC1
2. Cc1nc(Oc2ccc(NS(C)(=O)=O)cc2)ccc1CN1CCC(N(C(=O)Nc2cnc(C(N)=O)c(F)c2)c2cccc(F)c2)CC1
3. Cc1cc(NC(=O)N(c2cccc(F)c2)C2CCN(Cc3ccc(Oc4ccc(NS(C)(=O)=O)cc4)nc3C)CC2)cnc1C(N)=O
Order the entries by their reported remaining at 0.5 h, beginning at the minimum. The response must list the labels following the requested ordering.
2, 1, 3
(2: 26%, 1: 84%, 3: 120%)
